Assay: Half life in dog at 1 mg/kg, iv
Format: ADME, organism-based, Canis lupus familiaris
Settings: in vivo
assayReadout: half-life (h)

CC[C@@H](CCC[C@@H](CO)N(CCC(C)C)S(=O)(=O)c1ccc(N)cc1)NC(=O)[C@@H](NC(=O)OC)C(c1ccccc1)c1ccccc1 ... 7.4

[P] CCCN([C@H](CO)CCC[C@H](C)NC(=O)[C@@H](NC(=O)OC)C(c1ccccc1)c1ccccc1)S(=O)(=O)c1ccc(N)cc1
[Q] CCCN([C@H](CO)CCC[C@@H](NC(=O)[C@@H](NC(=O)OC)C(c1ccccc1)c1ccccc1)C(F)(F)F)S(=O)(=O)c1ccc(N)cc1
(Q) Lowest half-life? choose P or Q Refer to your chosen entry by its label in the reply.
(A) Q
(Q: 5.2 h, P: 9.1 h)

* * *

Experiment: AUC in dog at 4 mg/kg, po
Assay type: ADME, organism-based, Canis lupus familiaris
Parameters: dose 4 mg/kg, route po
Details: in vivo
assayReadout: AUC (µM·h)

[1] CCCN([C@H](CO)CCC[C@@H](NC(=O)[C@@H](NC(=O)OC)C(c1ccccc1)c1ccccc1)C(F)(F)F)S(=O)(=O)c1ccc(N)cc1
[2] CCCN([C@H](CO)CCC[C@H](C)NC(=O)[C@@H](NC(=O)OC)C(c1ccccc1)c1ccccc1)S(=O)(=O)c1ccc(N)cc1
(Q) Hi there! Just curious which has the higher AUC between 1 and 2 . Identify your selection by its label.
(A) 1
(1: 3.62 µM·h, 2: 2.48 µM·h)

* * *

Assay: Lipophilicity, logP of the compound in Octanol/water by shake-flask method
Type: physicochemical
assayReadout: logP
Output spec: single numeric token, no unit.

CC(C)CN(C[C@@H](O)[C@H](Cc1ccccc1)NC(=O)O[C@H]1CO[C@H]2OCC(F)(F)[C@H]21)S(=O)(=O)c1ccc(N)cc1 ... -0.83

(Q) Give the measured logP of CC(C)CN(C[C@@H](O)[C@H](Cc1ccccc1)NC(=O)O[C@H]1CO[C@H]2OCC[C@H]21)S(=O)(=O)c1ccc(N)cc1 .
(A) -0.63

(Q) // logP lookup, key: COc1ccc(S(=O)(=O)N(CC(C)C)C[C@@H](O)[C@H](Cc2ccccc2)NC(=O)O[C@H]2CO[C@H]3OCC(F)(F)[C@H]32)cc1
(A) -0.14

* * *

Test system: Human immunodeficiency virus 1
Test: Ratio of EC50 for antiviral activity against HIV1-JSL to EC50 for antiviral activity against wild type HIV1 ERS104pre
Type: functional
Ratio EC50 listing for selected compounds.
Could you respond with only the numeric value?

Study these solved cases before continuing.
CC(C)CN(C[C@@H](O)[C@H](Cc1ccccc1)NC(=O)O[C@H]1CO[C@H]2OCC[C@H]21)S(=O)(=O)c1ccc2c(c1)OCO2 ... 12
CC(C)CN(C[C@@H](O)[C@H](Cc1ccccc1)NC(=O)O[C@H]1CO[C@H]2OCC(F)(F)[C@H]21)S(=O)(=O)c1ccc(N)cc1 ... 7
COc1ccc(S(=O)(=O)N(CC(C)C)C[C@@H](O)[C@H](Cc2ccccc2)NC(=O)O[C@H]2CO[C@H]3OCC(F)(F)[C@H]32)cc1 ... 10
COc1ccc(S(=O)(=O)N(CC(C)C)C[C@@H](O)[C@H](Cc2ccccc2)NC(=O)O[C@H]2CO[C@H]3O[C@@H]4OCC[C@@H]4[C@H]32)cc1 ... 4

Consider the additional compound presented here.
(Q) Any idea what Ratio EC50 was measured for CC(C)CN(C[C@@H](O)[C@H](Cc1ccccc1)NC(=O)O[C@H]1CO[C@H]2OCC[C@H]21)S(=O)(=O)c1ccc(N)cc1 ?
(A) 6

* * *

Molecular target: Human immunodeficiency virus type 1 protease (Human immunodeficiency virus 1, UniProt Q72874)
Assay: Inhibition of recombinant HIV1 Protease using Abz-Thr-Ile-Nle-(p-nitro)-Phe-Gln-Arg-NH2 peptide as substrate
assayReadout: pIC50
Bear in mind: pIC50 is minus log10 of a mol/L concentration; give just that figure.

(Q) Could you tell me which pIC50 is on file for Cc1cccc(C)c1OCC(=O)N(Cc1ccccc1)C[C@@H]1CNC[C@H]1CN(CC(C)C)S(=O)(=O)c1ccccc1 ?
(A) 5.66

* * *

Experiment: AUC in rat at 10 mg/kg, po
Format: ADME, organism-based
Set-up: dose 10 mg/kg, route po
Details: in vivo
assayReadout: AUC (µM·h)

[I] CCCN([C@H](CO)CCC[C@H](C)NC(=O)[C@@H](NC(=O)OC)C(c1ccccc1)c1ccccc1)S(=O)(=O)c1ccc(N)cc1
[II] CCCN([C@H](CO)CCC[C@@H](NC(=O)[C@@H](NC(=O)OC)C(c1ccccc1)c1ccccc1)C(F)(F)F)S(=O)(=O)c1ccc(N)cc1
(Q) Recorded AUC values differ for I and II ; which one is higher? Respond with the label that goes with your answer.
(A) I
(I: 1.35 µM·h, II: 0.56 µM·h)

* * *

Target: Human immunodeficiency virus type 1 protease (Human immunodeficiency virus 1, UniProt Q72874)
Test: Binding affinity to HIV1 protease assessed as inhibition constant
pKi: −log10 of the molar value. Where a SMILES comes first, the peptide text is derived from it. [ ]: non-standard residue; d: D form. The star is where a group is joined. ξ: configuration not given here. C16 diacid = O=C(O)CCCCCCCCCCCCCCC(=O)*; Phe(4-NH2) = Nc1ccc(C[C@H](N)C(=O)O)cc1; Ile(3ξ) = CCC(C)[C@H](N)C(=O)O
assayReadout: pKi

COc1cccc2c1C(=O)C[C@H]2NC(=O)[C@H](OCc1cccc(Br)c1)[C@H](O)[C@@H](O)[C@@H](OCc1cccc(Br)c1)C(=O)N[C@H]1c2ccccc2C[C@H]1O ... 7.96
CCC(C)[C@H](NC(=O)[C@H](CCSC)NC(=O)CCCCCCCCCCCCCCC(=O)N[C@@H](CC(N)=O)C(=O)N[C@@H](Cc1ccccc1)C(=O)O)C(=O)N[C@@H](Cc1ccc(N)cc1)C(N)=O (stereo partly drawn) ({Phe-Asn-C16 diacid}-Met-[Ile(3ξ)]-[Phe(4-NH2)]-NH2) ... 7.07
COc1ccc(S(=O)(=O)N(CC(C)C)C[C@@H](O)[C@@H]2Cc3ccc(cc3)OC/C=C/CCc3c(O)cccc3C(=O)N2)cc1 ... 9.70

[A] CCC(C)N(CC(=O)N(CC(N)=O)Cc1ccc(N)cc1)C(=O)CN(CCSC)C(=O)CCCCCCCCCCCCCCC(=O)N(CC(N)=O)CC(=O)N(CC(=O)O)Cc1ccccc1 (stereo unspecified)
[B] NC(=O)CN(Cc1ccc(N)cc1)C(=O)CN(CC1CCCCC1)C(=O)CN(Cc1ccc(N)cc1)C(=O)CCCCCCCCCCCCCCC(=O)N(CC(=O)N(CC(=O)O)Cc1ccccc1)Cc1ccc(N)cc1
(Q) Task for the reader: decide whether A or B has the larger pKi. Your answer should be the label of the entry you select.
(A) B

* * *

Target: Human immunodeficiency virus type 1 protease (Human immunodeficiency virus 1, UniProt Q72874)
Experiment: Binding affinity to wild-type HIV1 protease expressed in Escherichia coli by fluorometric assay
assayReadout: pKi
Just so you know, pKi here is -log10 of the concentration in molar units; reply with that number alone.

Past entries and their recorded results:
O=C(Cc1cccc2ccccc12)Nc1ccccc1CN1C[C@H](O)[C@@H](O)CN(Cc2ccccc2Br)S1(=O)=O ... 6.55
O=C(Cc1cccc2ccccc12)Nc1ccccc1CN1C[C@H](O)[C@@H](O)CN(Cc2ccccc2NC(=O)Cc2cccc3ccccc23)S1(=O)=O ... 7.70
O=S1(=O)N(Cc2ccccc2-c2cc3ccccc3o2)C[C@H](O)[C@@H](O)CN1Cc1ccccc1-c1cc2ccccc2o1 ... 6.28

Proceeding to the next molecule to report its pKi.
(Q) Entry under review: O=C(Cc1cccc2ccccc12)Nc1ccccc1CN1C[C@H](O)[C@@H](O)CN(Cc2ccccc2)S1(=O)=O . Reported pKi?
(A) 6.85

* * *

Molecular target: Human immunodeficiency virus type 1 protease (Human immunodeficiency virus 1, UniProt Q72874)
Test: Binding affinity to HIV1 protease assessed as inhibition constant
assayReadout: Ki (nM)

COc1ccc(S(=O)(=O)N(CC(C)C)C[C@@H](O)[C@H](Cc2ccccc2)n2cc(CNC(=O)c3ccc(CNC(=O)OC(C)(C)C)cc3)nn2)cc1 ... 4
COc1ccc(S(=O)(=O)N(CC(C)C)C[C@@H](O)[C@H](Cc2ccccc2)NC(=O)O[C@H]2CO[C@H]3OCC(F)(F)[C@H]32)cc1 ... 0.8
COc1ccc(S(=O)(=O)N(CC(C)C)C[C@@H](O)[C@H](Cc2ccccc2)NC(=O)O[C@@H]2C[C@@H]3OCO[C@@H]3C2)cc1 ... 0.11
COc1ccc(S(=O)(=O)N(CC(C)C)C[C@@H](O)[C@H](Cc2ccccc2)NC(=O)O[C@H]2CO[C@H]3O[C@@H]4OCC[C@@H]4[C@H]32)cc1 ... 0.0059
COc1ccc(S(=O)(=O)N(CC(C)C)C[C@@H](O)[C@H](Cc2ccccc2)n2cc(COC(=O)N[C@H]3c4ccccc4C[C@H]3O)nn2)cc1 ... 1.7

[P] O=C1C[C@@H](NC(=O)[C@H](OCc2cccc(Br)c2)[C@H](O)[C@@H](O)[C@@H](OCc2cccc(Br)c2)C(=O)N[C@H]2c3ccccc3C[C@H]2O)c2ccccc21
[Q] O=C(Cc1cccc2ccccc12)O[C@H]1CNC[C@@H]1OC(=O)Cc1cccc2ccccc12
[R] COC(=O)[C@@H](NC(=O)[C@H](CC(C)C)NC(=O)[C@@H](NC(=O)CCCOc1ccc2ccc(OCCCC(=O)N[C@H](CCCCNC(=O)OCc3ccccc3)C(=O)Nc3cccn(CC(N)=O)c3=O)cc2c1)C(C)C)C(C)C
[S] COc1ccc(S(=O)(=O)N(CC(C)C)C[C@@H](O)[C@H](Cc2ccccc2)NC(=O)O[C@H]2CO[C@H]3C[C@@H]4OCC[C@@H]4[C@H]32)cc1
[T] COC(=O)[C@@H](NC(=O)[C@H](CC(C)C)NC(=O)[C@@H](NC(=O)CCCOc1ccc2ccc(OCCCC(=O)N[C@H](CCCCNC(=O)OCc3ccccc3)C(=O)NNC(=O)c3cc(NC(C)=O)ccc3OC)cc2c1)C(C)C)C(C)C
(Q) Order the records, beginning with the lowest Ki and ending with the highest. Labels, requested order.
(A) S, P, R, T, Q
